- Test system: A498 renal
- MEASUREMENT_PROTOCOL: NCI-60 one-dose screen, 48 h
- CONDITION_SET: 10 µM unless noted
- Description: Growth inhibition of the A498 human tumor cell line is measured as a screen for anti-cancer activity. Cells are grown in 96 well plates and exposed to the test compound for 48 hours. Compounds are tested at a single concentration, which is 10^-5 M for most compounds. The reported endpoint is percent growth (GI% or GIPRCNT), where numbers from 0 - 100% represent growth inhibition, and numbers from -100% - 0 represent cell death. For example, a value of 40 represents 60% growth inhibition. […]
This is part of a sample that, as a whole, favours compounds with a hit. Of some 83,000 tested, about 20% had one in any assay. Active and inactive are the calls of the source. Rule for the calls: active = growth percent below 10; inactive = the rest.
Pick one: True (active), False (inactive)

Solved cases (5 shown):
{"columns": ["MOLECULE", "CATEGORY_LABEL"],
 "data": [
  ["C[C@@H]1CCC[C@H]1CC(N)C(=O)O (stereo partly specified)", "False"],
  ["Clc1ccc2c(c1)N(c1ncnc3ccc(-c4cnc5[nH]ncc5c4)cc13)CC2", "True"],
  ["C/C(=N\\NC(=O)c1ccccc1O)c1cccc(/C(C)=N/NC(=O)c2ccccc2O)n1", "False"],
  ["C=CCn1c(SCC(=O)Nc2ccc(C(=O)/C=C/c3ccc(Cl)cc3)cc2)nnc1-c1cc(-c2ccc(S(N)(=O)=O)cc2)nc2ccccc12", "False"],
  ["O=C1c2cccnc2C(=O)c2c1c(C(=O)NCCCN1CCCCC1)c1ccccn21", "True"]
]}

Task: For COc1cc(-c2nc(SCC(C)C)nc(Nc3cccc4ccccc34)c2C#N)cc(OC)c1OC , which call appears in the assay record?
Output: False

Task: For O=C(CCCCC1CCSS1)Nc1ncnc2n[nH]c(-c3ccc(Oc4ccccc4)cc3)c12 (stereo unspecified) , which call appears in the assay record?
Output: False

Task: For CCN(CC)CCOc1ccc(-c2c(-c3ccccc3)c(=O)oc3ccccc23)cc1 , which call appears in the assay record?
Output: False

Task: For O=C1c2cccc(NCCN=Cc3cc(O)ccc3O)c2C(=O)c2c(NCCN=Cc3cc(O)ccc3O)cccc21 , which call appears in the assay record?
Output: True

Task: For Fc1ccc(Nc2nc3nonc3nc2Nc2ccc(I)cc2)cc1 , which call appears in the assay record?
Output: True
